# Pigweed plant response rating per record follows
Test system: redroot pigweed
Assay Comment: Test A pre-/postemergence greenhouse test
Format: in vivo, Amaranthus retroflexus
Run Conditions: Postemergence, 500 g ai/ha; 0 to 100 scale, 0 is no effect, 100 is complete control
Enter the number alone.

Below, 4 compounds whose answers are already recorded.
Cc1cc[n+]([O-])c(S(=O)(=O)Cc2c(C(F)(F)F)nn(CC(F)(F)F)c2Cl)c1 [Compound 49] | 10
Cn1nc(C(F)(F)F)c(C[S+]([O-])c2cc(C3CC3)cc[n+]2[O-])c1OCC(F)(F)F (stereo not drawn) [Compound 121] | 70
Cc1cc[n+]([O-])c(S(=O)(=O)Cc2c(C(F)(F)C(F)(F)F)nn(C)c2OCC(F)(F)F)c1 [Compound 99] | 60
Cc1cc[n+]([O-])c([S+]([O-])Cc2c(C(F)(F)F)nn(C)c2OC(C)C(F)(F)F)c1 (stereo not drawn) [Compound 88] | 80

Q: Consider the compound Cn1nc(C(F)(F)F)c(C[S+]([O-])c2ccc(Cl)c[n+]2[O-])c1Cl (racemic) [Compound 17] and give its recorded Pigweed plant response rating.
Ans: 80

Q: Consider the compound O=S(=O)(Cc1c(C(F)(F)F)nn(CC(F)(F)F)c1Cl)c1ccc(Cl)c[n+]1[O-] [Compound 50] and give its recorded Pigweed plant response rating.
Ans: 30

###

System: common ragweed
Assay Comment: Test F preemergence test
Type: in vivo, Ambrosia elation
Run Conditions: 125 g ai/ha, preemergence, scale 0 to 100
Property Label: Ragweed plant response rating
Enter the number alone.

Below, 3 molecules whose answers are already recorded.
Cc1cc[n+]([O-])c(S(=O)(=O)C(Cl)c2c(C(F)(F)F)nn(C)c2OCC(F)(F)F)c1 (racemic) | 0
CCn1nc(C(F)(F)F)c(C[S+]([O-])c2cc(C)cc[n+]2[O-])c1OCC(F)(F)F (racemic) | 80
Cn1nc(C(F)(F)F)c(C[S+]([O-])c2ccc(Cl)c[n+]2[O-])c1OCC(F)(F)F (racemic) | 80

Q: Consider the molecule CCn1nc(C(F)(F)F)c(CS(=O)(=O)c2cc(C)cc[n+]2[O-])c1OCC(F)(F)F and give its recorded Ragweed plant response rating.
Ans: 85

Q: Consider the molecule Cn1nc(OC(F)F)c(CS(=O)(=O)c2cccc[n+]2[O-])c1C(F)(F)F and give its recorded Ragweed plant response rating.
Ans: 90

Q: Consider the molecule Cn1nc(C(F)(F)C(F)(F)F)c(C[S+]([O-])c2cccc[n+]2[O-])c1OCC(F)(F)F (stereo not drawn) and give its recorded Ragweed plant response rating.
Ans: 100

###

# Morningglory plant response rating per record follows
Tested on: morningglory
Assay Comment: Test C pre-/postemergence test
Assay type: in vivo, Ipomoea coccinea
Run Conditions: 125 g ai/ha, preemergence; scale 0 (no effect) to 100 (complete control)

Q: Consider the compound Cn1nc(C(F)(F)C(F)(F)F)c(C[S+]([O-])c2cccc[n+]2[O-])c1OCC(F)(F)F (stereo not shown) [Compound 79] and give its recorded Morningglory plant response rating.
Ans: 100

Q: Consider the compound Cn1nc(C(F)(F)F)c(CS(=O)(=O)c2ccc(Cl)c[n+]2[O-])c1OCC(F)(F)F [Compound 73] and give its recorded Morningglory plant response rating.
Ans: 0

###

Tested on: woolly cupgrass
Assay Comment: Test C pre-/postemergence test
Format: in vivo, Eriochloa villosa
Run Conditions: Preemergence, 31 g ai/ha; scale 0 to 100 (0 no effect, 100 complete control)
Property Label: Plant response rating, Cupgrass, Woolly
Enter the number alone.

Cn1nc(C(F)(F)F)c(CS(=O)(=O)c2ccc(Cl)c[n+]2[O-])c1Cl | 10
Cn1nc(C(F)(F)F)c(CS(=O)(=O)c2cccc[n+]2[O-])c1OCC(F)(F)F | 80
CCc1cc[n+]([O-])c(S(=O)(=O)Cc2c(C(F)(F)F)nn(C)c2OC(F)F)c1 | 50

Q: Consider the compound CC(c1c(C(F)(F)F)nn(CC(F)(F)F)c1Cl)[S+]([O-])c1cccc[n+]1[O-] (stereo not shown) and give its recorded Plant response rating, Cupgrass, Woolly.
Ans: 80
